Source: patent US6599943B1

Collected V = 1000 × (Δabs 295 nm) min^−1 (initial rate of the support of the oxidation of xanthine) values appear next to each entry.
biological target: bovine milk xanthine oxidase (Bos taurus); experiment: Capacity to sustain oxidation of xanthine by xanthine oxidase in the absence of oxygen, spectrophotometric; assay type: biochemical; design: host or cells: bovine milk; conditions: 50 μM hydroxyguanidine, 50 μM xanthine, 0.05 units/ml xanthine oxidase, anaerobic, pH 7.5, 20° C., blank subtracted
Sequence (P80457 whole entry): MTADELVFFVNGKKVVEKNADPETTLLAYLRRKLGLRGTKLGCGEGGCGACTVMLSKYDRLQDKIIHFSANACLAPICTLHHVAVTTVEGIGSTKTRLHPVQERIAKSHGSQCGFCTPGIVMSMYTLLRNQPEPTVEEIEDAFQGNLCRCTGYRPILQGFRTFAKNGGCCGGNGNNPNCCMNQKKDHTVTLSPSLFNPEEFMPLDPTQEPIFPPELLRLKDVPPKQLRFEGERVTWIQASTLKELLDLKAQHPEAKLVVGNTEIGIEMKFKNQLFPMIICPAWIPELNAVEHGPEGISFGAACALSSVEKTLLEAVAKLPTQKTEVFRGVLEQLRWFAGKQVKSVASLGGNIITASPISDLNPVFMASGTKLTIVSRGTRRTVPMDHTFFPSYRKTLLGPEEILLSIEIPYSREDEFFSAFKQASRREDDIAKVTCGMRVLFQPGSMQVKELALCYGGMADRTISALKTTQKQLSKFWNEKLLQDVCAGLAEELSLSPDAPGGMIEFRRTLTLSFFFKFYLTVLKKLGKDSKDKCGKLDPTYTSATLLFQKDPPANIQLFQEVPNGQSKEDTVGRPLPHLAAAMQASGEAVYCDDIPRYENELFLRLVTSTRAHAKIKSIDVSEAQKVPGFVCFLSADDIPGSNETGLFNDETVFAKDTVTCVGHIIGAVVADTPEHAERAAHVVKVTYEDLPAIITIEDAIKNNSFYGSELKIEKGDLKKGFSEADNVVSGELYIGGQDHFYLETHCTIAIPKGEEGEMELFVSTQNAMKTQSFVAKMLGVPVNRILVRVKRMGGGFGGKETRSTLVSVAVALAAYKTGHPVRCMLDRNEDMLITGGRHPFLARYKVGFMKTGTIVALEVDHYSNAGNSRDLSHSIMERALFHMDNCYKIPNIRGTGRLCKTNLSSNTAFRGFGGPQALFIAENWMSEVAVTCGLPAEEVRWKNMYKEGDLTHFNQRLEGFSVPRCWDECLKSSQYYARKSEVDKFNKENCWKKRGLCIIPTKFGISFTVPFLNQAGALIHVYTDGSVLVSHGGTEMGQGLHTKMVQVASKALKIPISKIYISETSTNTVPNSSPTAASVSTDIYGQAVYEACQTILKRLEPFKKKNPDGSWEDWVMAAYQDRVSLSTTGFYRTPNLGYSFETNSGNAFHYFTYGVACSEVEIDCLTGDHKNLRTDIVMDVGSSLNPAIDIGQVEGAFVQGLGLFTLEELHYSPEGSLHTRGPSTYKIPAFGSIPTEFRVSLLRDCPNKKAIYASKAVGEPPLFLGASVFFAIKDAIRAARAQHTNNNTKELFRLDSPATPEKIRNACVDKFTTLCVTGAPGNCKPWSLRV
Structures can show the parent of a compound that is named as a salt.

stdin: Entry CCCCCCOc1cccc(/C=N/NC(=N)NO)c1 [LT7, reference compound] has what V = 1000 × (Δabs 295 nm) min^−1 (initial rate of the support of the oxidation of xanthine)?
stdout: 12 1000 × (Δabs 295 nm) min^−1

stdin: Entry Cc1c(/C=N/NC(=N)NO)sc2ccccc12 has what V = 1000 × (Δabs 295 nm) min^−1 (initial rate of the support of the oxidation of xanthine)?
stdout: 43 1000 × (Δabs 295 nm) min^−1

stdin: Entry N=C(NO)NN=CCOc1c(Cl)cccc1Cl has what V = 1000 × (Δabs 295 nm) min^−1 (initial rate of the support of the oxidation of xanthine)?
stdout: −2 1000 × (Δabs 295 nm) min^−1

stdin: Entry N=C(NO)NN=C1CCCCC1 [PR4, Tosylate] has what V = 1000 × (Δabs 295 nm) min^−1 (initial rate of the support of the oxidation of xanthine)?
stdout: 7 1000 × (Δabs 295 nm) min^−1
